- Tested on: Pfeiffer cells
- assay_text: CTG cell viability assay (CellTiter-Glo)
- Type: cell-based
- condition_info: Homo sapiens, 240 h; Pfeiffer cells, 10 days with compound, CellTiter-Glo; read-out: Cell Proliferation IC50
reported_endpoint: IC50 (nM)

> print(dat)
                                    compound   u  quantitative.result
 1  CN(C)[C@H]1CN(C2CCc3cccc(F)c32)C[C@@H]1c1cn(C)c2c(C(=O)N3CCN(S(C)(=O)=O)CC3)cccc12 (mixture of isomers) [Example 126]  nM                  329
 2  CN(C)[C@H]1CN(C2CCc3cccc(Cl)c32)C[C@@H]1c1cn(C)c2ccccc12 (some centres unmarked) [Example 89]  nM                 6370
 3  CC(=O)N1CCN(C(=O)c2cccc3c([C@H]4CN(C5CCc6cccc(F)c65)C[C@@H]4N(C)C)cn(C)c23)CC1 (mixture of isomers) [Example 128]  nM                  194
 4  COc1ccc([C@@H]2CN(C3CCc4cccc(F)c43)C[C@H]2N(C)C)cc1OC (mixture of isomers) [Example 23]  nM                  921
 5  CN(C)[C@H]1CN(C2CCc3cccc(F)c32)C[C@@H]1c1cn(C)c2c(C(=O)N3CCN4CCNC(=O)C4C3)cccc12 (mixture of isomers) [Example 134]  nM                  833
 6  CN(C)[C@H]1CN(C2CCc3cccc(F)c32)C[C@@H]1C1CCN(c2cccnc2)CC1 (mixture of isomers) [Example 149]  nM                  970
 7  CN(C)[C@H]1CN(C2CCc3cccc(F)c32)C[C@@H]1C1CCN(c2ccccn2)CC1 (mixture of isomers) [Example 152]  nM                  804
 8  CN(C)[C@H]1CN(C2CCc3cccc(F)c32)C[C@@H]1C1CCN(c2ccc(C(N)=O)cn2)CC1 (mixture of isomers) [Example 167]  nM                  143
 9  CCS(=O)(=O)N1CCN(c2ccc([C@H]3CN(C4CCc5cccc(F)c54)C[C@@H]3N(C)C)cc2C)CC1 (mixture of isomers) [Example 62]  nM                  429
10  CN(C)C(=O)Cn1cc(-c2ccc([C@@H]3CN(C4CCc5cccc(F)c54)C[C@H]3N(C)C)cn2)cn1 (mixture of isomers) [Example 159]  nM                  246
11  CN(C)[C@H]1CN([C@H]2CCc3cccc(F)c32)C[C@@H]1c1ccc(S(C)(=O)=O)cc1 [Example 11]  nM                  301
12  Cc1nnc(-c2ccc([C@@H]3CN(C4CCc5cccc(F)c54)C[C@H]3N(C)C)cc2)o1 (mixture of isomers) [Example 68]  nM                  491
13  CN(C(=O)c1cccc2c([C@H]3CN(C4CCc5cccc(F)c54)C[C@@H]3N(C)C)cn(C)c12)C1CC(O)C1 (mixture of isomers) [Example 109]  nM                  141
14  CN(C)C(=O)C(=O)N1CCN(c2ccc([C@@H]3CN(C4CCc5cccc(F)c54)C[C@H]3N(C)C)cc2)CC1 (mixture of isomers) [Example 59]  nM                  127

* * *

- Test system: H3K27me3 in G401 cells
- assay_text: H3K27me3 AlphaLISA assay in G401 cells
- Assay type: cell-based
- condition_info: Homo sapiens, G-401, 144 h, 6 days with compound
- Description: G401 cells (ATCC catalog # CRL-1441) were maintained in McCoy's 5a medium (ATCC) supplemented with 10% heat-inactivated FBS (HyClone) at 37° C. in a humidified CO2 incubator. OCILY19 cells (DSMZ catalog #ACC 528) were maintained in IMDM (Invitrogen) supplemented with 10% human serum (Sigma) at 37° C. in a humidified CO2 incubator. 5,000 cells were plated into each well of 96-well Corning CellBing cell culture plates and incubated overnight at 37° C. in a humidified CO2 incubator. […]
Listed next: entries and their corresponding IC50.
reported_endpoint: IC50 (nM)

compound	quantitative_result
CN(C)[C@H]1CN(C2CCc3cccc(F)c32)C[C@@H]1c1ccc(N2CCN(S(C)(=O)=O)CC2)cc1 (mixture of isomers) [Example 1]	55.5
CN(C)[C@H]1CN(C2CCc3cccc(F)c32)C[C@@H]1c1ccc(N2CCN(S(C)(=O)=O)CC2)cc1 (mixture of isomers) [Example 2]	99.2
CN(C)[C@H]1CN(C2CCc3cccc(F)c32)C[C@@H]1c1cn(C)c2c(C(=O)N3CCN(S(=O)(=O)N(C)C)CC3)cccc12 (mixture of isomers) [Example 124]	86.4

* * *

- System: Pfeiffer cells
- assay_text: CTG cell viability assay (CellTiter-Glo)
- Assay type: cell-based
- condition_info: Homo sapiens, 240 h; Pfeiffer cells, 10 days with compound, CellTiter-Glo; read-out: Cell Proliferation IC50
pIC50: −log10 of the molar value.
Listed next: entries and their corresponding pIC50.
reported_endpoint: pIC50

> print(dat)
                                    compound  reported.endpoint  quantitative.result
 1  CN(C)[C@@H]1CN(C2CCc3cccc(F)c32)C[C@H]1c1ccc(-c2cnn(CC(N)=O)c2)nc1 (mixture of isomers)              pIC50                 6.41
 2  CN1CCN(c2ccc([C@H]3CN(C4CCc5cccc(F)c54)C[C@@H]3N(C)C)cc2)CC1 (mixture of isomers)              pIC50                 6.69
 3  CN(C)[C@H]1CN(C2CCc3cccc(F)c32)C[C@@H]1c1cn(C)c2ncccc12 (mixture of isomers)              pIC50                 6.83
 4  CN(C)[C@@H]1CN([C@@H]2CCc3cccc(F)c32)C[C@H]1c1ccc(C#N)cc1 (racemic)              pIC50                 6.18
 5  CN1CCN(c2cccc3c([C@H]4CN(C5CCc6cccc(F)c65)C[C@@H]4N(C)C)cn(C)c23)CC1=O (mixture of isomers)              pIC50                 7.01
 6  CN(C)[C@@H]1CN(C2CCc3cccc(F)c32)C[C@H]1c1ccc(N2CCN(C(=O)CO)CC2)cc1 (mixture of isomers)              pIC50                 7.05
 7  CCS(=O)(=O)N1CCN(C(=O)c2cccc3c([C@H]4CN(C5CCc6cccc(F)c65)C[C@@H]4N(C)C)cn(C)c23)CC1 (mixture of isomers)              pIC50                 6.51
 8  CN(C)C(=O)N1CCN(c2cccc3c([C@H]4CN(C5CCc6cccc(F)c65)C[C@@H]4N(C)C)cn(C)c23)CC1 (mixture of isomers)              pIC50                 6.91
 9  CN(C)[C@H]1CN(C2CCc3cccc(F)c32)C[C@@H]1c1nn(C)c2ccccc12 (mixture of isomers)              pIC50                 6.43
10  CN(C)[C@@H]1CN(C2CCc3cccc(F)c32)C[C@H]1c1ccc(N2CCN(C(=O)CNS(C)(=O)=O)CC2)nc1 (mixture of isomers)              pIC50                 6.40
11  CNC(=O)c1ccc(N2CCC([C@H]3CN(C4CCc5cccc(F)c54)C[C@@H]3N(C)C)CC2)nc1 (mixture of isomers)              pIC50                 6.34
12  CN(C)[C@H]1CN(C2CCc3cccc(F)c32)C[C@@H]1c1cn(C)c2c(C(=O)O)cccc12 (mixture of isomers) [Example 80]              pIC50                 5.82
13  CN(C)[C@H]1CN(C2C[C@H](F)c3cccc(F)c32)C[C@@H]1c1ccc(S(C)(=O)=O)cc1 (mixture of isomers)              pIC50                 5.51

* * *

- Tested on: H3K27me3 in G401 cells
- assay_text: H3K27me3 AlphaLISA assay in G401 cells
- Type: cell-based
- condition_info: Homo sapiens, G-401, 144 h, 6 days with compound
pIC50: −log10 of the molar value.
Short version: pIC50 at least 7 is MET, less is NOT MET.

compound	assigned_label
CN(C)[C@H]1CN(C2CCc3cccc(F)c32)C[C@@H]1C1CCN(c2ccc(C(N)=O)nn2)CC1 (mixture of isomers) [Example 165]	MET
CN(C)[C@@H]1CN(C2CCc3cccc(F)c32)C[C@H]1c1ccc(Br)cc1 (mixture of isomers) [Example 6]	NOT MET
CN(C)[C@H]1CN(C2CCc3cccc(F)c32)C[C@@H]1c1ccc(-c2cnn(CC(N)=O)c2)cc1 (mixture of isomers) [Example 71]	MET
CN(C)C(=O)N1CCN(c2ccc([C@H]3CN(C4CCc5cccc(F)c54)C[C@@H]3N(C)C)cc2)CC1 (mixture of isomers) [Example 63]	MET
CN(C)[C@H]1CN(C2CCc3cccc(F)c32)C[C@@H]1c1cn(C)c2c(C(=O)N3CC(F)C3)cccc12 (mixture of isomers) [Example 103]	MET
CN(C)[C@@H]1CN(C2CCc3cccc(F)c32)C[C@H]1c1ccc(Cl)cc1 (mixture of isomers) [Example 7]	NOT MET
CN(C)[C@H]1CN(C2CCc3cccc(F)c32)C[C@@H]1c1cn(C)c2c(C(=O)N3C[C@H](O)[C@@H](O)C3)cccc12 (mixture of isomers) [Example 113]	NOT MET
CN(C)[C@H]1CN(C2CCc3cccc(F)c32)C[C@@H]1c1cn(C)c2c(C(=O)N3CC(O)C3)cccc12 (mixture of isomers) [Example 106]	MET
COC(=O)c1ccc([C@@H]2CN(C3CCc4cccc(F)c43)C[C@H]2N(C)C)cc1 (mixture of isomers) [Example 22]	NOT MET
Cc1n[nH]c(C)c1S(=O)(=O)N1CCN(C(=O)c2cccc3c([C@H]4CN(C5CCc6cccc(F)c65)C[C@@H]4N(C)C)cn(C)c23)CC1 (mixture of isomers) [Example 136]	NOT MET
CC(=O)N1CCN(c2ccc([C@H]3CN([C@H]4CCc5cccc(F)c54)C[C@@H]3N(C)C)cc2)CC1 [Example 45]	MET
CN(C)C(=O)N1CCN(c2cccc3c([C@H]4CN(C5CCc6cccc(F)c65)C[C@@H]4N(C)C)cn(C)c23)CC1 (mixture of isomers) [Example 131]	MET
CN(C)[C@H]1CN(C2CCc3cccc(F)c32)C[C@@H]1c1cn(C)c2c(C(=O)N3CC(F)C3)cccc12 (some centres unmarked) [Example 102]	MET
CN(C)[C@@H]1CN(C2CCc3cccc(F)c32)C[C@H]1c1ccc2c(c1)OCO2 (mixture of isomers) [Example 65]	NOT MET
CN(C)[C@H]1CN(C2CCc3cccc(F)c32)C[C@@H]1C1CCN(c2ncc(C(N)=O)s2)CC1 (mixture of isomers) [Example 162]	NOT MET
CN(C)[C@@H]1CN(C2CCc3cccc(F)c32)C[C@H]1c1ccc(N2CCN(C(=O)CS(N)(=O)=O)CC2)nc1 (mixture of isomers) [Example 160]	NOT MET
COc1ccc([C@@H]2CN(C3CCc4cccc(F)c43)C[C@H]2N(C)C)cc1OC (mixture of isomers) [Example 23]	NOT MET
CN(C)[C@@H]1CN(C2CCc3cccc(F)c32)C[C@H]1c1ccc(N2CCN(c3ccncn3)CC2)cc1 (mixture of isomers) [Example 74]	NOT MET
CN(C)[C@H]1CN(C2CCc3cccc(F)c32)C[C@@H]1C1CCN(c2cccnc2)CC1 (mixture of isomers) [Example 149]	NOT MET
CNC(=O)c1ccc(N2CCC([C@H]3CN(C4CCc5cccc(F)c54)C[C@@H]3N(C)C)CC2)nc1 (mixture of isomers) [Example 154]	NOT MET
